Known ABSOLUTE SEGMENTED NEUTROPHIL of a selection of compounds
species: Rattus norvegicus; assay: DrugMatrix - Regimen: Daily Repeat; assay type: toxicity, organism-based, Sprague-Dawley; set-up: regimen Daily Repeat, gender Male, age 6-8 weeks; conditions: in vivo, po, 0 mg/kg, 72 h, tissue Blood, route oral GAVAGE, dose level Control, time 3 day, vehicle 100 % SALINE
Remember to quote the unit after the number.

Reference set (4 entries):
Cc1ccnc2c1NC(=O)c1cccnc1N2C1CC1 [NEVIRAPINE]	847.67 CELLS/uL
CCN(CC)N=O [N-NITROSODIETHYLAMINE]	635.67 CELLS/uL
CCO [ALCOHOL]	1526.33 CELLS/uL
CC(CN1c2ccccc2Sc2ccccc21)N(C)C (stereo not given) [PROMETHAZINE]	1284.17 CELLS/uL

Now turn to the next compound.
Exam item: Fill in: ABSOLUTE SEGMENTED NEUTROPHIL of O=[As][O-].[Na+] [SODIUM ARSENITE] is ___
Marked response: 1526.33 CELLS/uL

###

organism: Rattus norvegicus; experiment: DrugMatrix - Regimen: Daily Repeat; assay type: toxicity, organism-based, Sprague-Dawley; set-up: regimen Daily Repeat, gender Male, age 6-8 weeks; details: in vivo, po, 0 mg/kg, 72 h, tissue Plasma, route oral GAVAGE, dose level Control, time 3 day, vehicle 100 % WATER
Known CREATINE PHOSPHOKINASE of a selection of compounds
Quick note: give the figure in u/L, leave out the unit.

CC(Cl)(Cl)Cl [TRICHLOROETHANE]	372.83
C[N+](C)(C)CCOC(N)=O.[Cl-] [CARBACHOL]	585
CN1C(=O)OC(C)(C)C1=O [TRIMETHADIONE]	139.5

Now turn to the next compound.
Exam item: Fill in: CREATINE PHOSPHOKINASE of NN [HYDRAZINE] is ___
Marked response: 532.5

###

Known CHOLESTEROL of a selection of molecules
species: Rattus norvegicus; experiment: DrugMatrix - Regimen: Daily Repeat; type: toxicity, organism-based, Sprague-Dawley; parameters: regimen Daily Repeat, gender Male, age 6-8 weeks; conditions: in vivo, po, 0 mg/kg, 120 h, tissue Plasma, route oral GAVAGE, dose level Control, time 5 day, […]
Quick note: give the figure in mg/dL, leave out the unit.

Reference set (3 entries):
O=C(O)COC(=O)Cc1ccccc1Nc1c(Cl)cccc1Cl	55.33
CC#C[C@]1(O)CC[C@H]2[C@@H]3CCC4=CC(=O)CCC4=C3[C@@H](c3ccc(N(C)C)cc3)C[C@@]21C	68.83
COC(=O)Nc1nc2ccc(C(=O)c3ccccc3)cc2[nH]1	55.33

Now turn to the next molecule.
Exam item: Fill in: CHOLESTEROL of COc1ccccc1OCCNCC(O)COc1cccc2[nH]c3ccccc3c12 (centres undefined) is ___
Marked response: 55.33

###

Known MEAN CORPUSCULAR HEMOGLOBIN CONCENTRATION of a selection of compounds
organism: Rattus norvegicus; experiment: DrugMatrix - Regimen: Daily Repeat; assay type: toxicity, organism-based, Sprague-Dawley; set-up: regimen Daily Repeat, gender Male, age 6-8 weeks; details: in vivo, po, 0 mg/kg, 72 h, tissue Blood, route oral GAVAGE, dose level Control, time 3 day, vehicle .5 % CMC
Quick note: give the figure in G/DL, leave out the unit.

Reference set (2 entries):
CCOc1cc(N)c(Cl)cc1C(=O)NCC1CN(Cc2ccc(F)cc2)CCO1 (stereo not drawn) [MOSAPRIDE]	39.4
CC(=O)Nc1ccc2c(c1)Cc1ccccc1-2 [2-ACETYLAMINOFLUORENE]	39.4

Exam item: Fill in: MEAN CORPUSCULAR HEMOGLOBIN CONCENTRATION of CN(C)CCC=C1c2ccccc2COc2ccccc21 [DOXEPIN] is ___
Marked response: 39.17

###

Known CHLORIDE of a selection of molecules
organism: Rattus norvegicus; assay: DrugMatrix - Regimen: Daily Repeat; format: toxicity, organism-based, Sprague-Dawley; design: regimen Daily Repeat, gender Male, age 6-8 weeks; conditions: in vivo, po, 1500 mg/kg, 72 h, tissue Plasma, route oral GAVAGE, dose level High, time 3 day, vehicle .5 % CMC
Quick note: give the figure in MEQ/L, leave out the unit.

Cc1ccc(S(=O)(=O)NC(=O)NN2CCCCCC2)cc1 [TOLAZAMIDE]	106.33

Exam item: Fill in: CHLORIDE of O=C(O)CCc1nc(-c2ccccc2)c(-c2ccccc2)o1 is ___
Marked response: 99.33

Exam item: Consider next the molecule COc1ccc(Cl)cc1C(=O)NCCc1ccc(S(=O)(=O)NC(=O)NC2CCCCC2)cc1 [GLYBURIDE] in the same way.
Marked response: 104.33

Exam item: Consider next the molecule CC[C@H]1OC(=O)[C@H](C)[C@@H](O[C@H]2C[C@@](C)(OC)[C@@H](O)[C@H](C)O2)[C@H](C)[C@@H](O[C@@H]2O[C@H](C)C[C@H](N(C)C)[C@H]2O)[C@](C)(O)C[C@@H](C)C(=O)[C@H](C)[C@@H](O)[C@]1(C)O in the same way.
Marked response: 100

Exam item: Consider next the molecule COc1cc(/C=C/C(=O)O)ccc1O [FERULATE] in the same way.
Marked response: 103.33

###

species on record: Rattus norvegicus; test: DrugMatrix - Regimen: Daily Repeat; format: toxicity, organism-based, Sprague-Dawley; design: regimen Daily Repeat, gender Male, age 6-8 weeks; details: in vivo, po, 0 mg/kg, 120 h, tissue Blood, route oral GAVAGE, dose level Control, time 5 day, vehicle 100 % WATER
Known HEMOGLOBIN of a selection of compounds
Quick note: give the figure in G/DL, leave out the unit.

Reference set (2 entries):
CCC1(c2ccccc2)C(=O)NC(=O)NC1=O	13.17
Cc1cc(C(C)(C)C)c(O)c(C)c1CC1=NCCN1	13.9

Exam item: Fill in: HEMOGLOBIN of CC(Cl)(Cl)Cl is ___
Marked response: 14.03

Exam item: Consider next the compound C1CCN2C[C@@H]3C[C@@H](CN4CCCC[C@@H]34)[C@H]2C1 in the same way.
Marked response: 14.03

Exam item: Consider next the compound C[N+](C)(C)CCOC(N)=O.[Cl-] in the same way.
Marked response: 13.47

Exam item: Consider next the compound NN [HYDRAZINE] in the same way.
Marked response: 14.07

Exam item: Consider next the compound CCN(CC)C(=S)SSC(=S)N(CC)CC in the same way.
Marked response: 14.48

Exam item: Consider next the compound Cc1cn([C@H]2C=C[C@@H](CO)O2)c(=O)[nH]c1=O in the same way.
Marked response: 13.47

Exam item: Consider next the compound CN1C(=O)OC(C)(C)C1=O in the same way.
Marked response: 14.38

###

organism: Rattus norvegicus; assay: DrugMatrix - Regimen: Daily Repeat; format: toxicity, organism-based, Sprague-Dawley; design: regimen Daily Repeat, gender Male, age 6-8 weeks; conditions: in vivo, po, 1500 mg/kg, 72 h, tissue Plasma, route oral GAVAGE, dose level High, time 3 day, vehicle .5 % CMC
measurementLabel: LIPASE (u/L)
Quick note: give the figure in u/L, leave out the unit.

Exam item: Fill in: LIPASE of O=C(O)CCc1nc(-c2ccccc2)c(-c2ccccc2)o1 is ___
Marked response: 8.67

Exam item: Consider next the molecule Cc1ccc(S(=O)(=O)NC(=O)NN2CCCCCC2)cc1 [TOLAZAMIDE] in the same way.
Marked response: 8

Exam item: Consider next the molecule CC[C@H]1OC(=O)[C@H](C)[C@@H](O[C@H]2C[C@@](C)(OC)[C@@H](O)[C@H](C)O2)[C@H](C)[C@@H](O[C@@H]2O[C@H](C)C[C@H](N(C)C)[C@H]2O)[C@](C)(O)C[C@@H](C)C(=O)[C@H](C)[C@@H](O)[C@]1(C)O in the same way.
Marked response: 9

Exam item: Consider next the molecule COc1cc(/C=C/C(=O)O)ccc1O [FERULATE] in the same way.
Marked response: 10

###

species: Rattus norvegicus; assay: DrugMatrix - Regimen: Daily Repeat; format: toxicity, organism-based, Sprague-Dawley; set-up: regimen Daily Repeat, gender Male, age 6-8 weeks; settings: in vivo, iv, 0 mg/kg, 72 h, tissue Blood, dose level Control, time 3 day, vehicle 100 % SALINE
Known ERYTHROCYTE COUNT of a selection of compounds
Quick note: give the figure in x10E6/uL, leave out the unit.

CC(=O)[C@]1(O)Cc2c(O)c3c(c(O)c2[C@@H](O[C@H]2C[C@H](N)[C@H](O)[C@H](C)O2)C1)C(=O)c1ccccc1C3=O [IDARUBICIN]	5.47
COC(=O)C[C@](O)(CCC(C)(C)O)C(=O)O[C@@H]1C(OC)=C[C@]23CCCN2CCc2cc4c(cc2[C@H]13)OCO4 [HARRINGTONINE]	5.63
Cc1c(N)nc([C@H](CC(N)=O)NC[C@H](N)C(N)=O)nc1C(=O)N[C@H](C(=O)N[C@H](C)[C@@H](O)[C@H](C)C(=O)N[C@H](C(=O)NCCc1nc(-c2nc(C(=O)NCCC[S+](C)C)cs2)cs1)[C@@H](C)O)[C@@H](O[C@@H]1O[C@@H](CO)[C@@H](O)[C@H](O)[C@@H]1O[C@H]1O[C@H](CO)[C@@H](O)[C@H](OC(N)=O)[C@@H]1O)c1c[nH]cn1.[Br-] [BLEOMYCIN A2]	5.18

Now turn to the next compound.
Exam item: Fill in: ERYTHROCYTE COUNT of CO[C@@]12[C@H](COC(N)=O)C3=C(C(=O)C(C)=C(N)C3=O)N1C[C@@H]1N[C@@H]12 [MITOMYCIN] is ___
Marked response: 5.49
